The measured values listed here are drawn from paper PMC12195777.

test: In vivo pharmacokinetic study in rats after oral administration (UPLC-QqQ-MS/MS of plasma)
Set-up: species or system SD rats
reported-conditions: male, SD, rat, oral CCMLE 232 mg/kg, plasma, n = 6

# molecular-string, Tmax
measured = [
    ("COc1cc(O)c(C(=O)O)c(/C=C/c2ccccc2)c1", "24 min"),
    ("COc1cc(/C=C/c2ccccc2)c(C(=O)O)c(O)c1CC=C(C)C", "18 min"),
    ("COc1cc(O)cc(/C=C/c2ccccc2)c1CC=C(C)C", "18 min"),
]

----------
Reported Tmax is given for each of the following molecules.
test: In vivo pharmacokinetic study in rats after oral administration (UPLC-QqQ-MS/MS of plasma)
Parameters: species or system SD rats
reported-conditions: male, SD, rat, oral stilbene/HP-β-CD inclusion complex 2.1 g/kg, plasma, n = 6

# molecule, measure-unit, Tmax
records = [
    ("COc1cc(O)c(C(=O)O)c(/C=C/c2ccccc2)c1 [MPA, 4-O-methylpinosylvic acid]", "min", 18),
    ("COc1cc(O)cc(/C=C/c2ccccc2)c1CC=C(C)C [LLC, longistyle C]", "min", 30),
    ("COc1cc(/C=C/c2ccccc2)c(C(=O)O)c(O)c1CC=C(C)C [CSA, cajaninstilbene acid]", "min", 18),
]

----------
test: In vivo pharmacokinetic study in rats after oral administration (UPLC-QqQ-MS/MS of plasma)
Set-up: species or system SD rats
reported-conditions: male, SD, rat, oral CCMLE 232 mg/kg, plasma, n = 6
Reported AUC(0-t) is given for each of the following compounds.

# molecular-string, AUC(0-t), ng·h/mL
records = [
    ("COc1cc(/C=C/c2ccccc2)c(C(=O)O)c(O)c1CC=C(C)C", 120),
    ("COc1cc(O)cc(/C=C/c2ccccc2)c1CC=C(C)C", 5.8),
    ("COc1cc(O)c(C(=O)O)c(/C=C/c2ccccc2)c1", 560),
]

----------
Reported AUC(0-t) is given for each of the following compounds.
test: In vivo pharmacokinetic study in rats after oral administration (UPLC-QqQ-MS/MS of plasma)
Set-up: species or system SD rats
reported-conditions: male, SD, rat, oral stilbene/HP-β-CD inclusion complex 2.1 g/kg, plasma, n = 6

# molecular-string, AUC(0-t), ng·h/mL
records = [
    ("COc1cc(O)c(C(=O)O)c(/C=C/c2ccccc2)c1", 740),
    ("COc1cc(/C=C/c2ccccc2)c(C(=O)O)c(O)c1CC=C(C)C", 240),
    ("COc1cc(O)cc(/C=C/c2ccccc2)c1CC=C(C)C", 10),
]

----------
test: In vivo pharmacokinetic study in rats after oral administration (UPLC-QqQ-MS/MS of plasma)
Design: species or system SD rats
reported-conditions: male, SD, rat, oral stilbene/HP-β-CD inclusion complex 2.1 g/kg, plasma, n = 6

# molecular-string, Cmax [ng/mL]
measured = [
    ("COc1cc(O)c(C(=O)O)c(/C=C/c2ccccc2)c1", 440),
    ("COc1cc(O)cc(/C=C/c2ccccc2)c1CC=C(C)C", 4.5),
    ("COc1cc(/C=C/c2ccccc2)c(C(=O)O)c(O)c1CC=C(C)C", 140),
]

----------
test: In vivo pharmacokinetic study in rats after oral administration (UPLC-QqQ-MS/MS of plasma)
Set-up: species or system SD rats
reported-conditions: male, SD, rat, oral CCMLE 232 mg/kg, plasma, n = 6
metric: AUC(0-inf) (ng·h/mL)

# molecule, measured
data = [
    ("COc1cc(O)cc(/C=C/c2ccccc2)c1CC=C(C)C [LLC, longistyle C]", 10),
    ("COc1cc(/C=C/c2ccccc2)c(C(=O)O)c(O)c1CC=C(C)C [CSA, cajaninstilbene acid]", 170),
    ("COc1cc(O)c(C(=O)O)c(/C=C/c2ccccc2)c1 [MPA, 4-O-methylpinosylvic acid]", 580),
]
